- SYSTEM_TESTED: serotonin 1A receptor (Rattus norvegicus)
- Construct: To the receptor fraction of the hippocampus were added a test compound and 0.5 nM of [^3H]; 8-hydroxy-dipropylaminotetralin; from tissue; host or cells: rat hippocampus membrane fraction
- Sequence (P19327 1-422): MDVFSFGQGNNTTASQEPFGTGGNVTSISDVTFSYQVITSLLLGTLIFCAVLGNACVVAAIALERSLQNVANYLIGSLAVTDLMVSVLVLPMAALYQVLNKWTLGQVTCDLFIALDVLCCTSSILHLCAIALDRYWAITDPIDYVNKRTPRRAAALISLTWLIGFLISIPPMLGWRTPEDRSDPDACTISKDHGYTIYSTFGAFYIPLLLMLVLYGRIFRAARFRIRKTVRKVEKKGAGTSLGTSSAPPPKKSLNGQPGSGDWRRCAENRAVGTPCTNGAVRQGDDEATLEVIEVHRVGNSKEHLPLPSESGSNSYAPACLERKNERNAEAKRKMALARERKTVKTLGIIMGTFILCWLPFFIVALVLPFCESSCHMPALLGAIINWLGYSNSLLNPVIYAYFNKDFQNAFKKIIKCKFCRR
- EXPERIMENTAL_PROTOCOL: Binding test on [3H] 8-hydroxy-dipropylaminotetralin, hippocampus receptor fraction
- Design: species or system SD rats
- DETAILS: rat hippocampus receptor fraction, 0.5 nM [3H] 8-OH-DPAT, room temperature 30 min; read-out: 5HT1
Structures can show the parent of a compound that is named as a salt.
# Ki listing for each entry below

Field: example entries. Status: answers known.
CCN1CCN(c2nc(-c3ccc(OCCO)cc3)cc3cscc23)CC1 [Example 278, oxalate] : 41.3 nM
CCN1CCN(c2nc(-c3ccc(CCCO)nc3)cc3ccccc23)CC1 : 3.4 nM
CCN1CCN(c2nc(-c3ccc(OCCCc4ccncc4)cc3)cc3ccccc23)CC1 [Example 57, Hydrochloride] : 57.2 nM

serotonin 1A receptor (Rattus norvegicus) data for `CCN1CCN(c2nc(Cc3ccccc3)cc3ccccc23)CC1` ; its Ki: 94.8 nM

serotonin 1A receptor (Rattus norvegicus) data for CCN1CCN(c2nc(-c3ccc(OCC(C)(C)O)cc3)cc3cccnc23)CC1 [Example 250, Dihydrochloride] ; its Ki: 123 nM

serotonin 1A receptor (Rattus norvegicus) data for COc1ccc(-c2cc3ccsc3c(N3CCN(CCO)CC3)n2)cc1 [Example 276, hydrochloride] ; its Ki: 160 nM

serotonin 1A receptor (Rattus norvegicus) data for `CCN1CCN(c2nc(N3CCN(c4ccccn4)CC3)cc3ccccc23)CC1` ; its Ki: 0.65 nM

serotonin 1A receptor (Rattus norvegicus) data for CCN1CCN(c2nc(-c3ccc(O[C@@H](C)CO)cc3)cc3ccoc23)CC1 [Example 303, dihydrochloride] ; its Ki: 0.53 nM

====

# melting point listing for each entry below
Where a name gives a salt, the structure may show the parent alone.

Field: example entries. Status: answers known.
CCN1CCN(c2nc(-c3ccc(OCCO)nc3)cc3ccsc23)CC1 (as salt: oxalate) [Example 268] : 124 to 125 °C
CCCC(O)c1ccc(-c2cc3ccsc3c(N3CCN(CC)CC3)n2)cc1 (stereo not shown) (as salt: hydrochloride) [Example 446, dihydrochloride] : 112 to 114 °C

Form: compound = CCN1CCN(c2nc(C#CCCc3ccccc3)cc3ccccc23)CC1 (as salt: hydrochloride) [Example 182, Dihydrochloride] ; melting point = 120 to 128 °C

Form: compound = CCN1CCN(c2nc(Sc3ccccc3)cc3ccccc23)CC1 (as salt: oxalate) [Example 374] ; melting point = 181.5 to 183 °C

====

- SYSTEM_TESTED: α1 adrenalin receptor
- EXPERIMENTAL_PROTOCOL: Binding test on [3H] prazosin, cerebral cortex receptor fraction
- DETAILS: rat cerebral cortex receptor fraction, about 0.2 nM [3H] prazosin, room temperature 60 min; read-out: α 1
Structures can show the parent of a compound that is named as a salt.
MEASURED_PARAMETER: pKi
Note on units: pKi is unitless, being -log10 of a concentration expressed in mol/L.

α1 adrenalin receptor data for CCN1CCN(c2nc(-c3ccc(CCCO)c(OC)c3)cc3ccccc23)CC1 [Example 33, hydrochloride] ; its pKi: 6.12

α1 adrenalin receptor data for CCN1CCN(c2nc(-c3cnc(N4CCOCC4)s3)cc3ccccc23)CC1 [Example 173, dihydrochloride] ; its pKi: 6.55

====

- SYSTEM_TESTED: serotonin 2 receptor (Rattus norvegicus)
- Construct: To the receptor fraction of the cerebral cortex were added a test compound and 0.3 nM of [^3H] ketanserin; from tissue; host or cells: rat cerebral cortex membrane fraction
- Sequence (P14842 whole entry): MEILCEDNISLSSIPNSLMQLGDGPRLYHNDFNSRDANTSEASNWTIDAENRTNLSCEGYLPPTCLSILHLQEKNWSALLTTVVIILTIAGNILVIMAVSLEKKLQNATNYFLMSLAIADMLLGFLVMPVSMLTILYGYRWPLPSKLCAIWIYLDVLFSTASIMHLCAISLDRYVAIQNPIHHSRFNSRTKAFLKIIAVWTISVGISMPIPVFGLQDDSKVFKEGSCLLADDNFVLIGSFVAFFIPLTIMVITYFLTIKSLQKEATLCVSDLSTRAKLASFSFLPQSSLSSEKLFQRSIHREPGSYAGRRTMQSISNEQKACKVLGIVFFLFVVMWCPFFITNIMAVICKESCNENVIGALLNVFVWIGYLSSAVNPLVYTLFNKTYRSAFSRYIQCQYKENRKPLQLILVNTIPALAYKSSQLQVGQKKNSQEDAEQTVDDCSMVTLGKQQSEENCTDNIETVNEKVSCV
- EXPERIMENTAL_PROTOCOL: Binding test on [3H] ketanserin, cerebral cortex receptor fraction
- Design: species or system SD rats
- DETAILS: 0.3 nM [3H] ketanserin, 37° C. 15 min, read-out: 5HT2
Counter-ions that a name gives are not always drawn.
# Ki listing for each entry below
Answer shape: numeric part, then the unit.

Field: example entries. Status: answers known.
CCN1CCN(c2nc(-c3ccc(CNS(=O)(=O)CC)cc3)cc3ccccc23)CC1 [Example 78, Hydrochloride] : 1.9 nM
CCN1CCN(c2nc(-c3ccc(CN4CCOCC4)cc3)cc3ccccc23)CC1 [Example 93, Hydrochloride] : 56.7 nM
CCN1CCN(c2nc(C#CCCc3ccccc3)cc3ccccc23)CC1 [Example 182, Dihydrochloride] : 15.9 nM

Form: compound = CCN1CCN(c2nc(-c3ccc(OCCO)cc3OC)cc3ccccc23)CC1 [Example 425] ; Ki = 2.55 nM

====

# melting point listing for each entry below
Where a name gives a salt, the structure may show the parent alone.

Form: compound = CCN1CCN(c2nc(-c3ccc(CNS(=O)(=O)CC)c(Cl)c3)cc3ccccc23)CC1 (as salt: hydrochloride) ; melting point = 278 to 280 °C (dec.)

Form: compound = CCN1CCN(c2nc(-c3ccc4c(c3)CC(C)(CO)O4)cc3ccsc23)CC1 (stereo not drawn) (as salt: hydrochloride) [Example 456, dihydrochloride] ; melting point = 138 to 140 °C (dec.)

Form: compound = CCN1CCN(c2nc(-c3ccnc(OC)c3)cc3ccccc23)CC1 (as salt: hydrochloride) ; melting point = 174 to 176 °C

====

# melting point listing for each entry below
Structures can show the parent of a compound that is named as a salt.

Form: compound = CCN1CCN(c2nc(-c3ccc(C(N)=O)cc3)cc3ccccc23)CC1 (as salt: hydrochloride) ; melting point = 197 to 199 °C

Form: compound = CCCCc1ccc(-c2cc3ccccc3c(N3CCN(CC)CC3)n2)cc1 (as salt: hydrochloride) ; melting point = 190 to 192 °C (dec.)

Form: compound = CCN1CCN(c2nc(/C=C/c3ccccn3)cc3ccccc23)CC1 (as salt: hydrochloride) [Example 209, Trihydrochloride] ; melting point = 220 °C (dec.)

Form: compound = CCN1CCN(c2nc(-c3ccc(S(=O)(=O)NCCOC)cc3)cc3ccccc23)CC1 (as salt: hydrochloride) [Example 354, dihydrochloride] ; melting point = 222 to 224 °C (dec.)

====

# pKi listing for each entry below
- SYSTEM_TESTED: serotonin 1A receptor (Rattus norvegicus)
- Construct: To the receptor fraction of the hippocampus were added a test compound and 0.5 nM of [^3H]; 8-hydroxy-dipropylaminotetralin; from tissue; host or cells: rat hippocampus membrane fraction
- EXPERIMENTAL_PROTOCOL: Binding test on [3H] 8-hydroxy-dipropylaminotetralin, hippocampus receptor fraction
- Set-up: species or system SD rats
- DETAILS: rat hippocampus receptor fraction, 0.5 nM [3H] 8-OH-DPAT, room temperature 30 min; read-out: 5HT1
Counter-ions that a name gives are not always drawn.
Note on units: pKi is unitless, being -log10 of a concentration expressed in mol/L.

CCN1CCN(c2nc(-c3ccc(CCC(C)OC)nc3)cc3ccccc23)CC1 (stereo not shown) [Example 144, Oxalate] : 8.32
CCN1CCN(c2nc(-c3ccc(OCCO)cc3)cc3ccccc23)CC1 [Example 36, dihydrochloride] : 7.73
CCN1CCN(c2nc(/C=C/c3ccc(OCCO)cc3)cc3ccsc23)CC1 [Example 431, hydrochloride] : 8.70

// next entry
Form: compound = CCN1CCN(c2nc(/C=C/c3ccccc3)cc3ccccc23)CC1 [Example 189, Dihydrochloride] ; pKi = 7.43

====

# Ki listing for each entry below
- SYSTEM_TESTED: serotonin 1A receptor (Rattus norvegicus)
- Construct: To the receptor fraction of the hippocampus were added a test compound and 0.5 nM of [^3H]; 8-hydroxy-dipropylaminotetralin; from tissue; host or cells: rat hippocampus membrane fraction
- EXPERIMENTAL_PROTOCOL: Binding test on [3H] 8-hydroxy-dipropylaminotetralin, hippocampus receptor fraction
- Design: species or system SD rats
- DETAILS: rat hippocampus receptor fraction, 0.5 nM [3H] 8-OH-DPAT, room temperature 30 min; read-out: 5HT1
Structures can show the parent of a compound that is named as a salt.
Please reply with the bare figure in nM and do not write the unit itself.

Field: example entries. Status: answers known.
CCN1CCN(c2nc(-c3ccc(CCCO)c(C(N)=O)c3)cc3ccccc23)CC1 : 10.7
CCN1CCN(c2nc(-c3ccc(N4CCC(O)CC4)nc3)cc3ccsc23)CC1 [Example 265, Hydrochloride] : 9.73
CCN1CCN(c2nc(-c3ccc(NC(C)=O)cc3)cc3ccccc23)CC1 [Example 68, Hydrochloride] : 30.9
CCN1CCN(c2nc(-c3ccc(OCCCO)cc3)cc3ccoc23)CC1 [Example 317, dihydrochloride] : 12.2
CCCCC(O)c1ccc(-c2cc3ccsc3c(N3CCN(CC)CC3)n2)cc1 (centres unmarked) [Example 254, Dihydrochloride] : 59.7

Form: compound = CCN1CCN(c2nc(-c3ccc(OCCF)cc3)cc3ccccc23)CC1 [Example 45, Dihydrochloride] ; Ki = 45

Form: compound = CCN1CCN(c2nc(-c3ccc(OC(F)(F)F)cc3)cc3ccccc23)CC1 [Example 339, dihydrochloride] ; Ki = 214

Form: compound = CCN1CCN(c2nc(-c3ccc(C(=O)NC)cc3)cc3ccccc23)CC1 [Example 365, dihydrochloride] ; Ki = 26.2
